As shown below, each of these sequences has a reported phosphorylation enrichment value.
Target: Fyn (UniProt P06241)
Sequence (P06241 whole entry, looked up): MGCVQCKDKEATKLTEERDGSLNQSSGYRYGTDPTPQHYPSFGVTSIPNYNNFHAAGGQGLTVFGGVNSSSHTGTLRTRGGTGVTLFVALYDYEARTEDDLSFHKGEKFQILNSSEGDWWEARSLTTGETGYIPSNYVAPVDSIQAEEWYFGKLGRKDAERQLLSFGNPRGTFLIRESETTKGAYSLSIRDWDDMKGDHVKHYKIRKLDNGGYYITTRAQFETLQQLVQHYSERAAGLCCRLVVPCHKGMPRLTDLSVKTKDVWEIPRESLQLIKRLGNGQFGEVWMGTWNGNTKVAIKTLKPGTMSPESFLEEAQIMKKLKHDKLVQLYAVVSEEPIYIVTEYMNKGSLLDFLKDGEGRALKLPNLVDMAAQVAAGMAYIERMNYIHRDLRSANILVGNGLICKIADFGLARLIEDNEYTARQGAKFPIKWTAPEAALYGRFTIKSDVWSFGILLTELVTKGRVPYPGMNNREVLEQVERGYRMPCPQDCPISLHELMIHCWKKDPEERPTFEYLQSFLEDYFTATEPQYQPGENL
Assay: phosphorylation enrichment, bacterial display (enrichment ratio); higher = better substrate or ligand; peptides without Tyr show the background;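 also: 11-residue human phosphosite peptides and single-mutation variants displayed on the E. coli surface, counted by deep sequencing, each peptide's frequency after selection divided by its frequency in the unselected input library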;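 also: frequency after pTyr selection over input frequency; kinase dosed for 20-30% of maximal phosphorylation in three min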
The answer should be written as a number, with no unit following it.

The cases that follow already have their phosphorylation enrichment on record.
chain | phosphorylation enrichment
SPPILYSFYLD [FCRL6_Y239] | 2.03
SHNELYYEEAE [VANGL1_Y344] | 0.544
EGTATYAAAVL [JUP_Y644] | 0.858

Req: Fetch value of phosphorylation enrichment on Fyn (UniProt P06241) for FADGVYLALEE [DUOX2_Y70_Q71L_YF] .
Resp: 2.15

Req: For Fyn (UniProt P06241), give phosphorylation enrichment of the listed sequence: PPGRSYSPYDY [TNS1_Y793]
Resp: 2.82
